Tested on: KM12 colon
Experiment: NCI-60 one-dose screen, 48 h
Details: 10 µM unless noted
About 83,000 compounds went through this panel and 20% of them were active in at least one assay; those are over-represented in the sample as a whole. Activity calls are given as the source filed them. The calls were made as follows: active = growth percent below 10; inactive = the rest.
Outcomes: label 1 for active, label 0 for inactive

INSERT INTO results (compound, assigned_class) VALUES
  ('COc1ccc(-c2csc(C3=C(O)CN(C(C)C)C3=N)n2)cc1OC', 'label 0'),
  ('Cc1cc(C)c2c(-c3nnc(N)s3)cc(=O)oc2c1', 'label 0'),
  ('COc1cc2nc(Cl)nc(Nc3ccc(S(=O)(=O)Nc4nccs4)cc3)c2cc1OC', 'label 0'),
  ('N#Cc1c(N)nn(C(=O)c2ccc(NC(=O)c3ccccn3)cc2)c1-c1ccc(Cl)cc1', 'label 1'),
  ('Cc1ccc(C2SCC(=O)N2Cc2ccccc2)cc1 (stereo not given)', 'label 0'),
  ('O=c1c2c3c(sc2n2c(-c4cn(-c5ccccc5)nc4-c4ccc(Cl)cc4)nnc2n1Cc1ccccc1)CCCC3', 'label 0'),
  ('COc1ccc(/C=c2\nc3n(-c4ccccc4)c4nc5c6c(sc5c(=N)n4n-3c2=O)CCCC6)cc1', 'label 0'),
  ('O=C(NCCCNc1cc(-c2cn(-c3ccccc3)nc2-c2cccc(O)c2)ccn1)c1ccc(F)cc1', 'label 0'),
  ('C[n+]1cccc(CC(=O)NO)c1', 'label 0'),
  ('CC/C=C1/C(=O)C=C[C@@H]1C/C=C\CCCC(=O)O', 'label 0');

Provenance of the data: PubChem BioAssay (NCI)
